- tested-system: UniProt:P22303
- Sequence (P22303 32-614): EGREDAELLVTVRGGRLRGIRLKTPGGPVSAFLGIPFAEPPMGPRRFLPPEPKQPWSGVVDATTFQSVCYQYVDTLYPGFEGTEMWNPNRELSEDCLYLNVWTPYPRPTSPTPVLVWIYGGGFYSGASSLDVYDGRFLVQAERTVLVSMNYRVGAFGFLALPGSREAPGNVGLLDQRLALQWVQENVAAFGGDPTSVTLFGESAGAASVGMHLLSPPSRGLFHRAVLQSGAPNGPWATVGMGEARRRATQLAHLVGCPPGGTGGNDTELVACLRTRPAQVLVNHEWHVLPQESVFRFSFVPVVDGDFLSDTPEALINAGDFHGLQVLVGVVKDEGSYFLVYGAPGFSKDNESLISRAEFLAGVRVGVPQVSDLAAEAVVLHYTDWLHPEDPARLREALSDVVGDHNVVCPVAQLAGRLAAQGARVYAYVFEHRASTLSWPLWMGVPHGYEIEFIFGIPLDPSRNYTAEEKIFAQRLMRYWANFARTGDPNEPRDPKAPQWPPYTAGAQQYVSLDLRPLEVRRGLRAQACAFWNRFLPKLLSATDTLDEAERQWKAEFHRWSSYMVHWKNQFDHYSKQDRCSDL
pIC50: −log10 of the molar value.
endpoint-label: pIC50

>>> measurement("CC(O)C12CCC(=O)N1c1ccccc1CO2 (stereo not shown) [Compound 2, Nigrosporine B]")
3.98

Provenance of the data: paper PMC11123012
